Target: CRBN/DDB1 (Homo sapiens (Human))
Sequence (Q96SW2 whole entry, species assumed): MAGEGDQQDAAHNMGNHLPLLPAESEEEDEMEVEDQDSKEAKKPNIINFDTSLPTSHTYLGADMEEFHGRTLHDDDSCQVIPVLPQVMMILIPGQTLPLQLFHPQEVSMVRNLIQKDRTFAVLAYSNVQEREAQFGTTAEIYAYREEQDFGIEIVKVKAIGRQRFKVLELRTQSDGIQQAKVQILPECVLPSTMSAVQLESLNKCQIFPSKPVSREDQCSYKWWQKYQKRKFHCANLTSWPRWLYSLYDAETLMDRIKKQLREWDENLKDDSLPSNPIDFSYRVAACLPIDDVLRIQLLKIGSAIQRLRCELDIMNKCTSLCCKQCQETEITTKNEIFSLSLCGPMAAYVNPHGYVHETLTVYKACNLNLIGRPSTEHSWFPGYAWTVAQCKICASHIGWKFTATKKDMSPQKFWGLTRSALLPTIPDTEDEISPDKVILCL
Sequence (Q16531 whole entry partner, species assumed): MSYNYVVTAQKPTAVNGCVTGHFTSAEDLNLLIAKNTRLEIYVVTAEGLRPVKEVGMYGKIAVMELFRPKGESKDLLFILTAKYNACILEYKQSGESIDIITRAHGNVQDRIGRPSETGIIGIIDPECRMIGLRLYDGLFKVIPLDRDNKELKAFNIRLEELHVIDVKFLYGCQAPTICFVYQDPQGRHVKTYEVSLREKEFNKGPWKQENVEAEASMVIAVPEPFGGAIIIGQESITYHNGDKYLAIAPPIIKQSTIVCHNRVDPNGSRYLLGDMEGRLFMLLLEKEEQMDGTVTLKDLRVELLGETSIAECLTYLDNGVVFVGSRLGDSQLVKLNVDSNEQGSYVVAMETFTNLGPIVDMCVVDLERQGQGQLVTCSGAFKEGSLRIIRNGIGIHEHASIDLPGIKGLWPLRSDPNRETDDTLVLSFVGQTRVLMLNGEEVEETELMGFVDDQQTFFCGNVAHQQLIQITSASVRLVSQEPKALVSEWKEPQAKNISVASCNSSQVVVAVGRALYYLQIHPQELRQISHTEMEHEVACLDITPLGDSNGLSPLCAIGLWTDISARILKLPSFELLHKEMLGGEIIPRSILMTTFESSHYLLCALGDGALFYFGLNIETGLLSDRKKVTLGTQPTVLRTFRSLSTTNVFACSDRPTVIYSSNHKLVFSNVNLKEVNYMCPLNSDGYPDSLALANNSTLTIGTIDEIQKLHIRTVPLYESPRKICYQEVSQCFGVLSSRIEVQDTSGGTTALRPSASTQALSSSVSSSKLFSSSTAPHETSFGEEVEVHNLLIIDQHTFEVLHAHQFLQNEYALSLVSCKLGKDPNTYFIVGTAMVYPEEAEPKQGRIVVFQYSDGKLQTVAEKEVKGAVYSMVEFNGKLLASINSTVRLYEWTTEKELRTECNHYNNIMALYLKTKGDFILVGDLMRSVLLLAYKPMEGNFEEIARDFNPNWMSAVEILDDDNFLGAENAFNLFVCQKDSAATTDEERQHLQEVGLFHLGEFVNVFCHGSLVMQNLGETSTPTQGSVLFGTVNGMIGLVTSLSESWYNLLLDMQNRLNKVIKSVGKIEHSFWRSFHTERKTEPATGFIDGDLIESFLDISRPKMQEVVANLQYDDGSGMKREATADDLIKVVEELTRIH
Assay: IC50 measurements for binding to CRBN/DDB1 (HTRF)
Conditions: His tagged CRBN+DDB, Cy5-labeled Thalidomide probe, one hour
pIC50: −log10 of the molar value.
reportedEndpoint: pIC50

Below, 5 molecules whose answers are already recorded.
{"columns": ["molecule", "observedMeasurement"],
 "data": [
  ["CS(=O)(=O)C1CCN(Cc2cc(-c3ccc4c(c3)CN(C3CCC(=O)NC3=O)C4=O)nc3c2ccn3C2COC2)CC1 (stereo not shown)", "6.00 to 6.30"],
  ["Nc1n[nH]c2c(CN3CCC(O)C3)cc(-c3ccc4c(c3)CN(C3CCC(=O)NC3=O)C4=O)nc12 (stereo not shown)", "5.30 to 6.00"],
  ["O=C1CCC(N2Cc3cc(-c4cc(CN5CCCC5)c5c(n4)NC(=O)C5)ccc3C2=O)C(=O)N1 (stereo not shown)", "6.30 to 7.00"],
  ["Cn1ccc2c(CN3CCC4(CC3)CC4)cc(-c3ccc4c(c3)CN(C3CCC(=O)NC3=O)C4=O)nc21 (stereo not shown)", "6.30 to 7.00"],
  ["O=C1CCC(N2Cc3cc(-c4cc(CN5CC(O)C5)c5cc[nH]c5n4)ccc3C2=O)C(=O)N1 (stereo not shown)", "6.30 to 7.00"]
]}

### Prompt Which pIC50 value is on record for O=C1CCC(N2Cc3cc(-c4cc(CNCCc5ccccc5Cl)cn5ccnc45)ccc3C2=O)C(=O)N1 (stereo not shown) ?
### Response 6.30 to 7.00

### Prompt Please look up its pIC50: O=C1CCC(N2Cc3cc(-c4cc(CN5CCC5)c5[nH]ccc5n4)ccc3C2=O)C(=O)N1 (stereo not shown)
### Response 5.30 to 6.00

###

Target: IKZF2 (Homo sapiens (Human), UniProt Q96SW2+Q9UKS7)
Sequence (Q9UKS7 whole entry, one chain of several): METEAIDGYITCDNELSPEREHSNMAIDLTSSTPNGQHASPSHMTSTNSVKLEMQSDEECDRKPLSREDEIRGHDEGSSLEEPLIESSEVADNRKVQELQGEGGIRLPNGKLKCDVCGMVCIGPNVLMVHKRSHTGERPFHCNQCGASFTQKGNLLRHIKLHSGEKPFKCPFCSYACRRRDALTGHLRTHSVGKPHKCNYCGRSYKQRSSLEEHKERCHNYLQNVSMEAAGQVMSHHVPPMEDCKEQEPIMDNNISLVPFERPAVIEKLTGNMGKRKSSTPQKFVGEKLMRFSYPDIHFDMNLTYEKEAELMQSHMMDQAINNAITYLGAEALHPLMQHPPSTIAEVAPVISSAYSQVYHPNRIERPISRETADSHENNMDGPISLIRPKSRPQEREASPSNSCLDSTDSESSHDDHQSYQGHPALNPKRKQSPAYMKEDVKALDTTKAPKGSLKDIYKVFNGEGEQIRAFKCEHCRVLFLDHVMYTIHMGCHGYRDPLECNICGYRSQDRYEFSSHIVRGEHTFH
Experiment: In vitro IKZF2 HiBit Assay (HEK293T Flp-in-HiBiT cells)
Assay type: cell-based
Settings: HEK-293T; HEK293T Flp-in-HiBiT cells, 6 hrs incubation; read-out: IKZF2 HiBit Dmax (%)
Here, each record is paired with measured Dmax data.

Example results:
{"columns": ["compound", "systemName", "observedMeasurement"],
 "data": [
  ["Cn1ccc2c(CN3CCCC3)cc(-c3ccc4c(c3F)CN(C3CCC(=O)NC3=O)C4=O)nc21 (stereo not shown)", "IKZF2 (Homo sapiens (Human), UniProt Q96SW2+Q9UKS7)", "> 80%"],
  ["CC(C)n1ccc2c(CN3CCCC3)cc(-c3ccc4c(c3)CN(C3CCC(=O)NC3=O)C4=O)nc21 (stereo not shown)", "IKZF2 (Homo sapiens (Human), UniProt Q96SW2+Q9UKS7)", "60 to 80%"]
]}

### Prompt Please tell me: Dmax of O=C1CCC(N2Cc3cc(-c4cc(CN5CCCC5)c5ccn(C6CNC6)c5n4)ccc3C2=O)C(=O)N1 (stereo not shown) , system IKZF2 (Homo sapiens (Human), UniProt Q96SW2+Q9UKS7)?
### Response 60 to 80%

### Prompt Requested read-out Dmax, target or system IKZF2 (Homo sapiens (Human), UniProt Q96SW2+Q9UKS7), entry O=C1CCC(N2Cc3cc(-c4cc(CN5CCCC5)c5c(n4)C(=O)NC5)ccc3C2=O)C(=O)N1 (stereo not shown)
### Response < 20%

### Prompt Lab note: need Dmax with IKZF2 (Homo sapiens (Human), UniProt Q96SW2+Q9UKS7) for entry CN(C)C(=O)CC1CCN(Cc2cc(-c3ccc4c(c3)CN(C3CCC(=O)NC3=O)C4=O)nc3[nH]ccc23)C1 (stereo not shown) , please look it up.
### Response 60 to 80%

### Prompt Provide the documented Dmax with IKZF2 (Homo sapiens (Human), UniProt Q96SW2+Q9UKS7) as the system for O=C1CCC(N2Cc3cc(-c4cc(CN5CCCC5)c5c(ccn5CCCO)n4)ccc3C2=O)C(=O)N1 (stereo not shown)
### Response 60 to 80%

### Prompt Identify the measured Dmax of O=C1CCC(N2Cc3cc(-c4cc(CN5CCCC5)c5ccn(C6CCCCC6)c5n4)ccc3C2=O)C(=O)N1 (stereo not shown) for IKZF2 (Homo sapiens (Human), UniProt Q96SW2+Q9UKS7).
### Response 40 to 60%

Data provenance is patent US20250214991A1.
